- assayExplanation: Induction of nitrous oxide release in MeOH/TBS buffer at pH 7.4 at 25 mM after 48 hrs by gas chromatographic analysis in presence of glutathione
- Assay type: physicochemical
- details: pH 7.4, 48 h, 25000 µM
quantity: Activity (%)
# number only, unit % dropped from output

Worked set:
- mol: "CC(C)N[N+]([O-])=N[O-].[Na+]"
  Activity (%): 6.8
- mol: "CC(C)N/[N+]([O-])=N/OCCS(C)(=O)=O"
  Activity (%): 0.1
- mol: "COS(=O)(=O)CCO/N=[N+](\\[O-])NC(C)C"
  Activity (%): 0.2
- mol: "CC(C)N/[N+]([O-])=N/OCCS(=O)(=O)NOCc1ccccc1"
  Activity (%): 0.8

Attention now turns to another entry.
[ask] Give its Activity value. Item: CONS(=O)(=O)CCO/N=[N+](\[O-])NC(C)C
[reply] 1.8

====

- assayExplanation: Induction of nitrous oxide release in MeOH/TBS buffer at pH 10 at 25 mM after 2 hrs by gas chromatographic analysis
- Assay type: physicochemical
- details: pH 10, 2 h, 25000 µM
Respond with Criterion met for Activity values of 20% and above, Criterion not met for values below.

Observe how each entry below is paired with its result.
- mol: "CONS(=O)(=O)CCO/N=[N+](\\[O-])NC(C)C"
  labelValue: "Criterion met"
- mol: "CC(C)N/[N+]([O-])=N/OCCS(C)(=O)=O"
  labelValue: "Criterion met"
- mol: "CC(C)N[N+]([O-])=N[O-].[Na+]"
  labelValue: "Criterion not met"
- mol: "COS(=O)(=O)CCO/N=[N+](\\[O-])NC(C)C"
  labelValue: "Criterion not met"

[ask] Kindly determine if Activity recorded for CC(C)N/[N+]([O-])=N/OCCS(=O)(=O)NOCc1ccccc1 is above or exactly 20%.
[reply] Criterion met

====

- assayExplanation: Induction of nitrous oxide release in MeOH/TBS buffer at pH 10 at 25 mM after 2 hrs by gas chromatographic analysis in presence of glutathione
- Assay type: physicochemical
- details: pH 10, 2 h, 25000 µM
Measured Activity values are reported for all entries that follow.
# number only, unit % dropped from output

- mol: "CC(C)N[N+]([O-])=N[O-].[Na+]"
  Activity, %: 9.5
- mol: "CC(C)N/[N+]([O-])=N/OCCS(C)(=O)=O"
  Activity, %: 2.2
- mol: "COS(=O)(=O)CCO/N=[N+](\\[O-])NC(C)C"
  Activity, %: 1.3

[ask] Give its Activity value. Item: CONS(=O)(=O)CCO/N=[N+](\[O-])NC(C)C
[reply] 29

[ask] Entry CC(C)N/[N+]([O-])=N/OCCS(=O)(=O)NOCc1ccccc1 please
[reply] 30.3

====

- assayExplanation: Induction of nitrous oxide release in MeOH/TBS buffer at pH 7.4 at 25 mM after 0.5 hrs by gas chromatographic analysis in presence of glutathione
- Format: physicochemical
- details: pH 7.4, 0.5 h, 25000 µM
quantity: Activity (%)
# number only, unit % dropped from output

Worked set:
- mol: "CONS(=O)(=O)CCO/N=[N+](\\[O-])NC(C)C"
  observedMeasurement: 0.4
- mol: "CC(C)N[N+]([O-])=N[O-].[Na+]"
  observedMeasurement: 6.1
- mol: "COS(=O)(=O)CCO/N=[N+](\\[O-])NC(C)C"
  observedMeasurement: 0.2
- mol: "CC(C)N/[N+]([O-])=N/OCCS(C)(=O)=O"
  observedMeasurement: 1.3

Attention now turns to another entry.
[ask] Give its Activity value. Item: CC(C)N/[N+]([O-])=N/OCCS(=O)(=O)NOCc1ccccc1
[reply] 0.3
